Sourced from PubChem BioAssay AID248

Items are presented alongside their recorded T/C.
Test system: L1210 leukemia ip in BDF1 mice, survival T/C
assay info: NCI In Vivo Anticancer Drug Screen. Data for tumor model L1210 Leukemia (intraperitoneal) in B6D2F1 (BDF1) mice
test settings: endpoint: mean survival time; dose: 400.0 mg/kg/injection; schedule: Q04DX003 (ip); vehicle: Klucel (hydroxypropylcellulose) (HPC); higher = longer survival
Toxic doses and inconclusive results are not listed.

# compound, tested target, T/C
rows = [
    ("O=C1c2ccccc2C(=O)C1c1ccccc1", "L1210 leukemia ip in BDF1 mice, survival T/C", "106 % of control"),
    ("CC(=O)COC(=O)c1ccc(N(C)CC(C)=O)cc1", "L1210 leukemia ip in BDF1 mice, survival T/C", "93 % of control"),
    ("CCOC(=O)N1Cc2cc3ccccc3nc2C1CC(=O)O (centres undefined)", "L1210 leukemia ip in BDF1 mice, survival T/C", "96 % of control"),
    ("O=[N+]([O-])c1ccccc1N=N/C(Cc1ccccc1)=N\\Nc1ccccc1", "L1210 leukemia ip in BDF1 mice, survival T/C", "92 % of control"),
    ("Oc1ccc(-c2ccccc2)cc1CNC12CC3CC(CC(C3)C1)C2", "L1210 leukemia ip in BDF1 mice, survival T/C", "94 % of control"),
    ("COC(=O)Nc1ccc(N)c(NC(=O)OC)n1", "L1210 leukemia ip in BDF1 mice, survival T/C", "100 % of control"),
    ("COC(=O)C1C=CCC2C(=O)C=C(C)C(=O)C12C (centres undefined)", "L1210 leukemia ip in BDF1 mice, survival T/C", "96 % of control"),
    ("Cc1c(Cl)c(C)c(Cl)c(CCl)c1Cl", "L1210 leukemia ip in BDF1 mice, survival T/C", "92 % of control"),
    ("O=C(O)C1C2CC(C(Br)C2Br)C1C(=O)O (centres undefined)", "L1210 leukemia ip in BDF1 mice, survival T/C", "105 % of control"),
    ("O=C(Nc1cc([N+](=O)[O-])ccc1F)N(C1CCCCC1)C1CCCCC1", "L1210 leukemia ip in BDF1 mice, survival T/C", "104 % of control"),
    ("CC(C)(C)C(=O)CSC/C(=N/O)C(C)(C)C", "L1210 leukemia ip in BDF1 mice, survival T/C", "99 % of control"),
    ("C[Si](C)(C)c1cc(F)c(F)c(F)c1F", "L1210 leukemia ip in BDF1 mice, survival T/C", "103 % of control"),
    ("Cc1ccc(C(=O)/C=C2/SS/C(=C/C(=O)c3ccc(C)cc3)S2)cc1", "L1210 leukemia ip in BDF1 mice, survival T/C", "110 % of control"),
    ("O=[N+]([O-])c1ccccc1S(=O)(=O)/C=C/c1ccccc1", "L1210 leukemia ip in BDF1 mice, survival T/C", "101 % of control"),
    ("CCOC(=O)c1cnc(SC)nc1Nc1ccc(Br)cc1", "L1210 leukemia ip in BDF1 mice, survival T/C", "87 % of control"),
    ("Cc1ncc(CSCC(=O)O)c(N)n1", "L1210 leukemia ip in BDF1 mice, survival T/C", "103 % of control"),
    ("CCOc1ccccc1NC1=C(OC)C(=O)C(Nc2ccccc2OCC)=C(OC)C1=O", "L1210 leukemia ip in BDF1 mice, survival T/C", "101 % of control"),
    ("CC(=O)c1ccccc1OS(=O)(=O)c1ccc([N+](=O)[O-])cc1", "L1210 leukemia ip in BDF1 mice, survival T/C", "103 % of control"),
    ("Cc1ccc(C(Br)C2=CC(C)(C)c3ccccc3C2=O)cc1 (centres undefined)", "L1210 leukemia ip in BDF1 mice, survival T/C", "104 % of control"),
]

* * *

Items are presented alongside their recorded T/C.
Tested on: L1210 leukemia ip in BDF1 mice, survival T/C
assay info: NCI In Vivo Anticancer Drug Screen. Data for tumor model L1210 Leukemia (intraperitoneal) in B6D2F1 (BDF1) mice
test settings: endpoint: mean survival time; dose: 400.0 mg/kg/injection; schedule: Q01DX001 (ip); vehicle: saline; higher = longer survival
Toxic doses and inconclusive results are not listed.
measured attribute: T/C

# molecule, measurement
rows = [
    ("COc1ccc(-c2oc3cc(OC)ccc3c(=O)c2O)cc1", "98 % of control"),
    ("CC1NC(=S)N(c2ccc(S(=O)(=O)c3ccc(N4C(=O)C(C)NC4=S)cc3)cc2)C1=O (stereo not drawn)", "98 % of control"),
    ("Cc1cc(C)c2c(C#N)cn(-c3ccc(Cl)cc3)c2n1", "91 % of control"),
]

* * *

System: L1210 leukemia ip in BDF1 mice, survival T/C
assay info: NCI In Vivo Anticancer Drug Screen. Data for tumor model L1210 Leukemia (intraperitoneal) in B6D2F1 (BDF1) mice
test settings: endpoint: mean survival time; dose: 200.0 mg/kg/injection; schedule: Q01DX001 (ip); vehicle: Klucel (hydroxypropylcellulose) (HPC); higher = longer survival
Inconclusive results and toxic doses are left out.
measured attribute: T/C

# molecule, measured attribute, measurement
measured = [
    ("COc1ccc(NC(=O)Nc2onc(C)c2C)c(Cl)c1", "T/C", "97 % of control"),
    ("CCCCCCC(=O)CCC(=O)CCCCCCCC(=O)O", "T/C", "100 % of control"),
    ("CCC1(C)C(=O)N(Br)C(=O)N1Br (centres undefined)", "T/C", "102 % of control"),
    ("Cc1ccc(NC(=O)NCCCl)c2c1CCC2", "T/C", "92 % of control"),
    ("Nc1cc2scnc2c(N)n1", "T/C", "91 % of control"),
    ("CC(C)C(C)/C=C\\C(C)C1CCC2=C3CCC4CC(O)CCC4(C)C3CCC21C (centres undefined)", "T/C", "97 % of control"),
    ("O=c1c2[nH]c3cccc(Cl)c3c2cnn1-c1ccc(F)cc1", "T/C", "104 % of control"),
    ("COC(=O)c1cccc(OC)c1-c1c(OC)cccc1C(=O)OC", "T/C", "103 % of control"),
    ("O=P1(c2ccccc2)CCc2[nH]c3ccc(Br)cc3c2C1 (centres undefined)", "T/C", "93 % of control"),
    ("COc1ccccc1N=Nc1c(O)n(-c2ccccc2C)c(=S)n(-c2ccccc2OC)c1=O", "T/C", "98 % of control"),
    ("Cc1ccc(/C(O)=C\\C(=S)SS)cc1", "T/C", "100 % of control"),
    ("O=NN(CCCl)C(=O)CCCCC(=O)N(CCCl)N=O", "T/C", "67 % of control"),
    ("COC1OC(CN(CCOS(C)(=O)=O)CCOS(C)(=O)=O)C2OC(C)(C)OC12 (centres undefined)", "T/C", "107 % of control"),
    ("Nc1ncnc(N)c1NC(=O)COc1ccc([N+](=O)[O-])cc1", "T/C", "94 % of control"),
]

* * *

System: L1210 leukemia ip in BDF1 mice, survival T/C
assay info: NCI In Vivo Anticancer Drug Screen. Data for tumor model L1210 Leukemia (intraperitoneal) in B6D2F1 (BDF1) mice
test settings: endpoint: mean survival time; dose: 25.0 mg/kg/injection; schedule: Q04DX003 (ip); vehicle: saline; higher = longer survival
Inconclusive results and toxic doses are left out.

# compound, T/C
rows = [
    ("C1CCN(CCC2CCNCC2)CC1", "97 % of control"),
    ("CCc1ccc(/C=C/c2ccc(O)c3ncccc23)[n+](C)c1", "110 % of control"),
    ("FC(F)(F)c1ccc2c(c1)N(CCCN1CCN(CCCl)CC1)c1ccccc1S2", "110 % of control"),
    ("C=CCNC(=O)CCl", "97 % of control"),
    ("OC(c1ccccc1)(c1ccccc1)C1CC1c1ccncc1 (configuration not stated)", "107 % of control"),
    ("N=C(N)SCc1ccc(CSC(=N)N)cc1", "103 % of control"),
    ("NNC(=O)c1ccc(Cl)cc1Nc1ccc(F)cc1", "94 % of control"),
]

* * *

Items are presented alongside their recorded T/C.
Tested on: L1210 leukemia ip in BDF1 mice, survival T/C
assay info: NCI In Vivo Anticancer Drug Screen. Data for tumor model L1210 Leukemia (intraperitoneal) in B6D2F1 (BDF1) mice
test settings: endpoint: mean survival time; dose: 50.0 mg/kg/injection; schedule: Q01DX001 (ip); vehicle: carboxymethylcellulose (CMC); higher = longer survival
Inconclusive results and toxic doses are left out.
measured attribute: T/C

# compound, measurement
measured = [
    ("COC1=C(OC)C(=O)c2c(c(=O)c3ccccc3n2C)C1=O", "95 % of control"),
    ("NC(=O)NNC(=O)NNC(N)=O", "95 % of control"),
    ("CCOc1ccccc1C(=O)Nc1ccc(Br)cc1", "91 % of control"),
]
